Entry source: ChEMBL document CHEMBL1146282

- procedure_summary: Inhibition of post-glutamyl-peptide hydrolytic activity of human 20S proteasome
Catalogue of molecules with associated IC50

Previously resolved entries follow.
> print(dat)
                                smiles.code  parameter  assay.value
1  CC(C)C[C@@]1(NC(=O)[C@@H](NC(=O)[C@H](Cc2ccccc2)NC(=O)Cc2cccc(Oc3ccccc3)c2)C(C)C)CNC1=O       IC50      > 20 µM
2  COc1ccc(C[C@H](NC(=O)Cc2cccc(Oc3ccccc3)c2)C(=O)N[C@H](C(=O)N[C@]2(Cc3ccccc3)CNC2=O)C(C)C)c(OC)c1OC       IC50      > 20 µM

Consider the record given below.
Q: Look up and report measured IC50 for this entry: COc1ccc(C[C@H](NC(=O)Cc2cccc(Oc3ccccc3)c2)C(=O)N[C@H](C(=O)N[C@]2(CC(C)C)CNC2=O)C(C)C)c(OC)c1OC
Result: > 100 µM
